biological target: recombinant CD73 (Homo sapiens (Human), UniProt P21589); experiment: Assay 2: Inhibition of the CD73 enzyme in vitro (0.05 nM CD73, 1 hour 37° C., Malachite Green); format: biochemical; settings: 0.05 nM CD73, 50 μM AMP, 1 hour at 37° C.
Sequence (P21589 27-547): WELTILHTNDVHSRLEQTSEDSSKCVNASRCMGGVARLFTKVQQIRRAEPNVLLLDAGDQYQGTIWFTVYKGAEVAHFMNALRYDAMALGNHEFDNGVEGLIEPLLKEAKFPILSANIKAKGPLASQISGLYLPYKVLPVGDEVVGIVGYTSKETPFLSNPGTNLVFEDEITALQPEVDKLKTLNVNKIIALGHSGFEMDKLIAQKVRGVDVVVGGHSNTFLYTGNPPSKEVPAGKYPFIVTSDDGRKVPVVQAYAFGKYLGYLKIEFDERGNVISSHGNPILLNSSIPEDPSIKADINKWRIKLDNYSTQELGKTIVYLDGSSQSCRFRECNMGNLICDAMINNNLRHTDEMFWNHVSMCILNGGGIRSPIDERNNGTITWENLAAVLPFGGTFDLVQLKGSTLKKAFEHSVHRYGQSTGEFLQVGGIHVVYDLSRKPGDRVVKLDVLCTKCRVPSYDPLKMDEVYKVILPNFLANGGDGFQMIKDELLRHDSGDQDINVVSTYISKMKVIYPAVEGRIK
quantityMeasured: IC50 (nM)

Past entries and their recorded results:
C#C[C@@]1(O)[C@@H](COC(Cc2ccccc2)(C(=O)O)C(=O)O)O[C@@H](n2cnc3c(N)nc(C(N)=O)nc32)[C@@H]1O [Example 122]	40
C#C[C@@]1(O)[C@@H](COC(Cc2ccccc2)(C(=O)O)C(=O)O)O[C@@H](n2cnc3c(NCc4ccncc4)nc(Cl)nc32)[C@@H]1O [Example 78]	2
C#C[C@@]1(O)[C@@H](COC(Cc2ccc(-c3ccc[nH]c3=O)cc2)(C(=O)O)C(=O)O)O[C@@H](n2cnc3c(N)nc(Cl)nc32)[C@@H]1O [Example 12]	0.1
C#C[C@@]1(O)[C@@H](COC(Cc2ccc(-c3cccn(CCC)c3=O)cc2)(C(=O)O)C(=O)O)O[C@@H](n2cnc3c(NC)nc(Cl)nc32)[C@@H]1O [Example 160]	0.31
C#C[C@@]1(O)[C@@H](COC(Cc2ccccc2)(C(=O)O)C(=O)O)O[C@@H](n2cnc3c(N[C@H](C)c4ccccc4)nc(Cl)nc32)[C@@H]1O [Example 62]	2
C#C[C@@]1(O)[C@@H](CO[C@](Cc2ccccc2)(C(=O)O)c2cscn2)O[C@@H](n2cnc3c(NCC4CC4)nc(Cl)nc32)[C@@H]1O (single isomer, unassigned) [Example 172]	6
C#C[C@@]1(O)[C@@H](COC(Cc2ccccc2)(C(=O)O)C(=O)O)O[C@@H](n2cnc3c(NCC)nc(Cl)nc32)[C@@H]1O [Example 73]	1
C#C[C@@]1(O)[C@@H](COC(Cc2ccccc2)(C(=O)O)C(=O)O)O[C@@H](n2cnc3ccc(C(F)(F)F)nc32)[C@@H]1O [Example 125]	235
C#C[C@@]1(O)[C@@H](COC(Cc2ccsc2)(C(=O)O)c2cscn2)O[C@@H](n2cnc3c(NC(C)C)nc(Cl)nc32)[C@@H]1O (stereo partly drawn) [Example 169]	162
C#C[C@@]1(O)[C@@H](COC(C(=O)O)S(=O)(=O)c2ccccc2)O[C@@H](n2cnc3c(N4CCOCC4)nc(Cl)nc32)[C@@H]1O (stereo partly drawn) [Example 119]	4610

(a) C#C[C@@]1(O)[C@@H](COC(Cc2ccccc2)(C(=O)O)C(=O)O)O[C@@H](n2cnc3c(N4CCC[C@H]4CO)nc(Cl)nc32)[C@@H]1O [Example 104]
(b) C#C[C@@]1(O)[C@@H](COC(Cc2ccccc2)(C(=O)O)C(=O)O)O[C@@H](n2cnc3c(N4CCC[C@@H]4CO)nc(Cl)nc32)[C@@H]1O [Example 103]
Q: Would you kindly point out which of a and b has the smaller IC50 figure? Give the chosen item's label as your response.
A: a
(a: 2 nM, b: 3 nM)

* * *

target: recombinant CD73 (Homo sapiens (Human)); test: Assay 2: Inhibition of the CD73 enzyme in vitro (0.05 nM CD73, 1 hour 37° C., Malachite Green); type: biochemical; conditions: 0.05 nM CD73, 50 μM AMP, 1 hour at 37° C.
quantityMeasured: IC50 (nM)

C#C[C@@]1(O)[C@@H](COC(Cc2ccc(N3CCCNC3=O)cc2)(C(=O)O)C(=O)O)O[C@@H](n2cnc3c(NC)nc(Cl)nc32)[C@@H]1O	0.23

(1) C#C[C@@]1(O)[C@@H](COC(Cc2ccccc2)(C(=O)O)C(=O)OCC)O[C@@H](n2cnc3c(NCc4ccncc4)nc(Cl)nc32)[C@@H]1O (stereo partly drawn)
(2) C#C[C@@]1(O)[C@@H](COC(Cc2ccc(N3CCCN(C)C3=O)cc2)(C(=O)O)C(=O)O)O[C@@H](n2cnc3c(N)nc(Cl)nc32)[C@@H]1O
Q: Determine, for 1 and 2 , which has the greater value of IC50. Give the chosen item's label as your response.
A: 1

Numbers sourced from patent US11078228B2.
